test system: Pseudomonas aeruginosa; assay: Antibacterial activity against Pseudomonas aeruginosa CIP 82118 after 16 to 20 hrs by broth microdilution method; assay type: functional
OBSERVED_PROPERTY: MIC

# MIC of Oc1ccc2ccccc2c1C(c1cccs1)n1nnc2ccccc21 (configuration not stated) = > 512 µg/mL

# MIC of CC1(C)S[C@@H]2[C@H](NC(=O)[C@H](N)c3ccc(O)cc3)C(=O)N2[C@H]1C(=O)O [AMOXICILLIN] = > 512 µg/mL

# MIC of Cc1cc(C)cc(C(c2c(O)ccc3ccccc23)N2CCCCC2)c1 (configuration not stated) = > 512 µg/mL

# MIC of Oc1ccc2cc(Br)ccc2c1C(c1cccc2ccccc12)N1CCCCC1 (configuration not stated) = > 512 µg/mL

# MIC of CC1CCN(C(c2cccc3ccccc23)c2c(O)ccc3cc(Br)ccc23)CC1 (configuration not stated) = > 512 µg/mL

# MIC of CC1CCN(C(c2ccc(Br)s2)c2c(O)ccc3ccccc23)CC1 (configuration not stated) = > 512 µg/mL

# MIC of CC1CCN(C(c2ccccc2)c2c(O)ccc3cc(Br)ccc23)CC1 (configuration not stated) = > 512 µg/mL

# MIC of COc1ccc2ccc(O)c(C(c3ccccc3)N3CCC(C)CC3)c2c1 (configuration not stated) = > 512 µg/mL

# MIC of Oc1ccc2ccccc2c1C(c1cccs1)N1CCOCC1 (configuration not stated) = > 512 µg/mL

# MIC of COc1ccc2ccc(O)c(C(c3ccccn3)N3CCC(C)CC3)c2c1 (configuration not stated) = > 512 µg/mL

# MIC of CC1CCN(C(c2cccc3ccccc23)c2c(O)ccc3ccccc23)CC1 (configuration not stated) = > 512 µg/mL

# MIC of CC1CCN(C(c2cccc(Cl)c2)c2c(O)ccc3cc(Br)ccc23)CC1 (configuration not stated) = > 512 µg/mL

# MIC of CC1CCN(C(c2ccccc2)c2c(O)ccc3ccccc23)CC1 (configuration not stated) = > 512 µg/mL
